- Method description: cytotoxicity in PAX8-dependent RMG-1 cells, dose response, cell-based, cherry-pick (AID 687029);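 also: cells exposed to compound for 96 hours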
- Protocol conditions: RMG-1 viability, CellTiterGlo ATP luminescence, 96 h; series mostly up to 35 µM
Entries with a potency or affinity are not part of this list. Activity calls are given as the source filed them.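 The calls were made as follows: active = signal drop whose fitted half-maximal concentration is at most twice the top valid dose, in every test run; inconclusive = mixed calls across runs, poor fit, or flat 30 to 70% inhibition; inactive = wrong direction, flat within 30%, or potency beyond limit.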
Measurement name: activity change, negative = inhibition

| Smiles structure | Observed result |
| --- | --- |
| COc1ccc(S(=O)(=O)N(C)C[C@H]2OCCCC[C@@H](C)Oc3ccc(NS(=O)(=O)c4c(C)noc4C)cc3C(=O)N([C@H](C)CO)C[C@H]2C)cc1 | inactive |
| C[C@@H]1CCCCO[C@@H](CN(C)Cc2ccc(C(F)(F)F)cc2)[C@H](C)CN([C@H](C)CO)C(=O)c2cc(NS(=O)(=O)c3cccs3)ccc2O1 | inactive |
| COc1ccc(NC(=O)N2CC(=O)N3[C@H](C2)[C@H](c2ccc(/C=C/c4ccccc4)cc2)[C@@H]3CO)cc1 | inactive |

* * *

Each entry below lists one item and its recorded composite z-score value.
- Assayed system: Follistatin-related protein 3 (Homo sapiens) (UniProt O95633)
- Sequence (O95633 whole entry, looked up): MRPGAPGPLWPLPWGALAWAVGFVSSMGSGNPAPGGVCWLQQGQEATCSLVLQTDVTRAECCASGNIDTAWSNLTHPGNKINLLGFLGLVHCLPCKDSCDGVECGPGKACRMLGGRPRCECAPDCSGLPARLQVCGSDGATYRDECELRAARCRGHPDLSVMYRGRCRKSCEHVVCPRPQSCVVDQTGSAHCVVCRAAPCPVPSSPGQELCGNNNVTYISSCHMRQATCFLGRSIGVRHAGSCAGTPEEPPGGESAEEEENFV
- Method description: FSTL3 binders on small-molecule microarrays, primary screen, biochemical, small-molecule microarray, 635 nm fluorescence (AID 1105);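 also: score merges emission near 667 nm and signal to noise per printed spot across three slides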
- Protocol conditions: FSTL3 binding, higher = more signal
Provide a numeric answer; units are not to be included.

| Compound | composite z-score |
| --- | --- |
| COC(=O)c1c(CC[C@@H](CO)NC(=O)Nc2ccc(OC)cc2)oc(C(=O)Cc2ccccc2)c1C(=O)OC | 0.325 |
| CCOC(=O)C[C@H]1[C@H](OC(=O)c2ccc(C(=O)c3ccccc3)cc2)[C@@H](NC(=O)Cc2ccc(OC)cc2)c2cc(OCCCO)ccc2N1C(=O)Cc1ccc(OC)cc1 | 0.321 |
| COC(=O)C1=CC(c2ccc(CO)cc2)=CC(C2CC2)N(C)C=C1C(=O)OC (stereo unspecified) | -0.172 |

Given item CC(C)C(CO)N1C(=O)[C@@H]2C3C(=O)OCCC/C=C\[C@H]3OC23C=CCN(C(C)C)C(=O)[C@@H]13 (stereo partly specified) , the value recorded as its composite z-score is -0.826

Given item CN1C=C(C(=O)OCCS(C)(=O)=O)C(C(=O)OCCS(C)(=O)=O)=CC(CCCO)=CC1c1cccs1 (stereo unspecified) , the value recorded as its composite z-score is 0.663

Given item C=C(CCCC)/C(=C/C[C@@H](OC(=O)c1ccncc1)c1ccc(OCCO)cc1)c1cnc2ccccc2c1 , the value recorded as its composite z-score is 1.53

Given item CC(C)NC(=O)[C@@H]1c2ccccc2C(=O)N(Cc2cc(F)cc(C(F)(F)F)c2)[C@H]1c1ccc(CO)cc1 , the value recorded as its composite z-score is -1.17

Given item CCOC(=O)C[C@H]1[C@H](OC(=O)Cc2ccc3c(c2)OCO3)[C@@H](NC(=O)c2ccc3ccccc3c2)c2cc(OCCCO)ccc2N1C(=O)c1ccc2ccccc2n1 , the value recorded as its composite z-score is 0.161

Given item C=CC[C@]1(C(=O)N2CCCCC2)COC(c2ccc(OCCCO)cc2)=N1 , the value recorded as its composite z-score is -1.32

Given item CC(C)C(CO)N1C(=O)[C@@H]2[C@H]3C(=O)OCC=C[C@H]3OC23C=CCN(Cc2ccccc2)C(=O)[C@@H]13 (stereo partly specified) , the value recorded as its composite z-score is -0.718
